# Tested on: SARS-CoV-2 Wuhan lineage B, hCoV-19/Australia/VIC01/2020 (EPI_ISL_406844)
# Measurement notes: microbe, parasite or virus in culture
# Assay type: cell-based
# Assay context: Severe acute respiratory syndrome coronavirus 2, Vero C1008, 96 h
Attribute: IC50
# unit: µM | format: bare number

| Compound | Units label | IC50 |
| --- | --- | --- |
| CC(=O)C1=C(O)C=C2Oc3c(C(=O)CSC(C)C(=O)O)c(O)c(C)c(O)c3[C@@]2(C)C1=O (mixture of isomers) [Compound 5b] | µM | 76.5 |
| CC(=O)C1=C(O)C=C2Oc3c(C(C)=O)c(O)c(C)c(O)c3[C@@]2(C)C1=O [Compound 1, (R)-(+)-Usnic acid] | µM | 10.9 |

In the following, a different compound is considered.
What the record says about CC(=O)C1=C(O)C=C2Oc3c(C(C)=O)c(O)c(C)c(O)c3[C@@]2(C)[C@@H]1O [Compound 6] : IC50 is 65.3

* * *

# Measurement notes: Cytotoxicity of compounds on HEK293T cells (MTT)
# Assay type: cell-based
# Assay context: human
Below, each entry is listed alongside its reported CC50 at 72 h.
Give the value, in units of µM, as a plain number.

// below: answered molecules
| Chem smiles | Units label | Value reported |
| --- | --- | --- |
| CC(=O)c1c(O)c(C)c(O)c2c1O[C@@H]1CC/C(=C(/C)O)C(=O)[C@]21C | µM | 151 |
| CC(=O)C1=C(O)C=C2Oc3c4c(c(C)c(O)c3[C@@]2(C)C1=O)OCC4=O | µM | 358 |

Then this molecule:
Notebook: CC(=O)c1c(O)c(C)c(O)c2c1OC1=CC(=O)c3c(C)noc3[C@@]12C , CC50 at 72 h read as 150
